This section presents compounds with their documented Ki values.
- assayed.system: Cytochrome P450 2D6 (Homo sapiens, UniProt P10635)
- Sequence (P10635 whole entry): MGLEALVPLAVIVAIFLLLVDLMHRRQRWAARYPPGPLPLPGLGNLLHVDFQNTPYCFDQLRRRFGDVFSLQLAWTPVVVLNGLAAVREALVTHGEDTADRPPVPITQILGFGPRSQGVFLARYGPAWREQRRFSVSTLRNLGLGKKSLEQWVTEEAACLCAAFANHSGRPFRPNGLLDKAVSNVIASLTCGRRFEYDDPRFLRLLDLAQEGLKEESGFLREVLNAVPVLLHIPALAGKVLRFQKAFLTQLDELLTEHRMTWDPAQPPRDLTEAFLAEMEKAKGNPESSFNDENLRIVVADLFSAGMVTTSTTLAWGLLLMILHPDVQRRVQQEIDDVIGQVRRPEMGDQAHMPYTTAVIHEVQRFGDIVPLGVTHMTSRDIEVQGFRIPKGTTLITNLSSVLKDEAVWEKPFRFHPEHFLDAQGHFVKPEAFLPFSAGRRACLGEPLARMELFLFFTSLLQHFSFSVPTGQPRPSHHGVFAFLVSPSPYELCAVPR
property.measured: Ki (µM)

{"smiles.input": "c1cncc(-c2cc[nH]n2)c1", "assayed.system": "Cytochrome P450 2D6 (Homo sapiens, UniProt P10635)", "value.comparator": "=", "endpoint.value": 165}
{"smiles.input": "Cc1ccsc1-c1ccc(F)nc1", "assayed.system": "Cytochrome P450 2D6 (Homo sapiens, UniProt P10635)", "value.comparator": ">", "endpoint.value": 400}
{"smiles.input": "Cn1cnc(-c2cccnc2)c1", "assayed.system": "Cytochrome P450 2D6 (Homo sapiens, UniProt P10635)", "value.comparator": "=", "endpoint.value": 102}
{"smiles.input": "Cc1csc(-c2cccnc2)n1", "assayed.system": "Cytochrome P450 2D6 (Homo sapiens, UniProt P10635)", "value.comparator": ">", "endpoint.value": 400}
{"smiles.input": "CNCc1ccc(-c2cccnc2)s1", "assayed.system": "Cytochrome P450 2D6 (Homo sapiens, UniProt P10635)", "value.comparator": "=", "endpoint.value": 56.5}
{"smiles.input": "CN(C)CC#Cc1cccnc1", "assayed.system": "Cytochrome P450 2D6 (Homo sapiens, UniProt P10635)", "value.comparator": ">", "endpoint.value": 400}
{"smiles.input": "SCc1ccc(-c2cccnc2)o1", "assayed.system": "Cytochrome P450 2D6 (Homo sapiens, UniProt P10635)", "value.comparator": "=", "endpoint.value": 0.7}
{"smiles.input": "Cc1cscc1-c1cccnc1", "assayed.system": "Cytochrome P450 2D6 (Homo sapiens, UniProt P10635)", "value.comparator": "=", "endpoint.value": 96.5}
{"smiles.input": "c1cncc(-c2ccsc2)c1", "assayed.system": "Cytochrome P450 2D6 (Homo sapiens, UniProt P10635)", "value.comparator": "=", "endpoint.value": 124}
{"smiles.input": "CNCC#Cc1cccnc1", "assayed.system": "Cytochrome P450 2D6 (Homo sapiens, UniProt P10635)", "value.comparator": ">", "endpoint.value": 400}
{"smiles.input": "NCc1ccc(-c2cccnc2)o1", "assayed.system": "Cytochrome P450 2D6 (Homo sapiens, UniProt P10635)", "value.comparator": "=", "endpoint.value": 5.7}
{"smiles.input": "NCCCc1cccnc1", "assayed.system": "Cytochrome P450 2D6 (Homo sapiens, UniProt P10635)", "value.comparator": ">", "endpoint.value": 400}
{"smiles.input": "CSCc1ccc(-c2cccnc2)o1", "assayed.system": "Cytochrome P450 2D6 (Homo sapiens, UniProt P10635)", "value.comparator": "=", "endpoint.value": 64.5}
{"smiles.input": "Cc1cscc1-c1ccccc1", "assayed.system": "Cytochrome P450 2D6 (Homo sapiens, UniProt P10635)", "value.comparator": ">", "endpoint.value": 400}
{"smiles.input": "NCc1ccc(-c2ccccc2)o1", "assayed.system": "Cytochrome P450 2D6 (Homo sapiens, UniProt P10635)", "value.comparator": "=", "endpoint.value": 14.8}
{"smiles.input": "c1cncc(-c2c[nH]cn2)c1", "assayed.system": "Cytochrome P450 2D6 (Homo sapiens, UniProt P10635)", "value.comparator": "=", "endpoint.value": 100}
